test_target: von Hippel-Lindau disease tumor suppressor (Homo sapiens)
Sequence (P40337 whole entry): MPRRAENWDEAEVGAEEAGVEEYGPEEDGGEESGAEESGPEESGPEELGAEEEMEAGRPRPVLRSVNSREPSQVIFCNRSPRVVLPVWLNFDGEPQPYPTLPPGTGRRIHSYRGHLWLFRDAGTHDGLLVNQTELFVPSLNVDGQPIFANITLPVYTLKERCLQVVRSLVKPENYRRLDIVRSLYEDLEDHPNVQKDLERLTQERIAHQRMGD
test: biochemical
Description: Binding affinity to VHL (unknown origin)-NanoLuc fusion protein expressed in HEK293 cells assessed as apparent dissociation constant incubated for 30 mins in presence of digitonin by NanoBRET assay
observed_property: pKd
Reminder that pKd is minus the log10 of a molar concentration.

// below: answered compounds
>>> recorded_number("COc1ccc(-c2ccc(C[C@@H](NC(=O)[C@@H]3C[C@@H](O)CN3C(=O)[C@@H](NC(C)=O)C(C)(C)C)C(N)=O)cc2)cc1")
4.51
>>> recorded_number("Cc1cnn([C@H](C(=O)N2C[C@H](O)C[C@H]2C(=O)N[C@H](Cc2ccc(-c3ccccc3)cc2)C(N)=O)C(C)C)c1")
4.73

Now look at this entry.
For this compound ( CC(=O)N[C@H](C(=O)N1C[C@H](O)C[C@H]1C(=O)N[C@H](C(N)=O)c1ccc(-c2scnc2C)cc1)C(C)(C)C ), measured pKd is 5.67

* * *

test: Plasma protein binding in CD-1 mouse at 5 uM incubated for 4 hrs by HPLC analysis
Type: ADME, cell-free
condition: read-out: PPB (converted)
fraction unbound at 4 h, 5 µM overview
Write the value as a bare number.

>>> recorded_number("CC(=O)N[C@H](C(=O)N1C[C@H](O)C[C@H]1C(=O)N[C@@H](C)c1ccc(-c2scnc2C)cc1)C(C)(C)C")
0.399

Now look at this entry.
For this compound ( Cc1ncsc1-c1ccc2c(c1)CCCC[C@@H]2NC(=O)[C@@H]1C[C@@H](O)CN1C(=O)[C@@H](n1cc(C2CC2)nn1)C(C)(C)C ), measured fraction unbound at 4 h, 5 µM is 0.003

* * *

Read-out record for von Hippel-Lindau disease tumor suppressor (Homo sapiens): log10 of Kd
Note the log scale: values are log10 of Kd expressed in µM.

// below: answered compounds
>>> recorded_number("C=CC(C)(C)[C@@H](C(=O)N1C[C@H](O)C[C@H]1C(=O)N[C@H](Cc1ccc(-c2ccccc2)cc1)C(N)=O)n1cc(C2CC2)nn1")
-1.20
>>> recorded_number("CSC[C@H](NC(C)=O)C(=O)N1C[C@H](O)C[C@H]1C(=O)N[C@H](Cc1ccc(-c2ccccc2)cc1)C(N)=O")
1.67
>>> recorded_number("CC(C)[C@@H](C(=O)N1C[C@H](O)C[C@H]1C(=O)N[C@H](Cc1ccc(-c2ccccc2)cc1)C(N)=O)c1cccnc1")
1.39
>>> recorded_number("NC(=O)[C@@H](Cc1ccc(-c2ccccc2)cc1)NC(=O)[C@@H]1C[C@@H](O)CN1C(=O)[C@@H](n1cc(C2CC2)nn1)C12CC3CC(CC(C3)C1)C2")
-1.17

Now look at this entry.
For this compound ( CC(=O)N[C@@H](CC1CC1)C(=O)N1C[C@H](O)C[C@H]1C(=O)N[C@H](Cc1ccc(-c2ccccc2)cc1)C(N)=O ), measured log10 of Kd is 1.49

* * *

test: Volume of distribution in female C57Bl/6 mouse at 1 mg/kg, iv measured upto 8 hrs by LC-MS/MS analysis
Assay type: ADME, organism-based
condition: in vivo
observed_property: Vd (L/kg)
// note: answer is a bare numeric in L/kg

For this compound ( CC(=O)N[C@H](C(=O)N1C[C@H](O)C[C@H]1C(=O)N[C@@H](C)c1ccc(-c2scnc2C)cc1)C(C)(C)C ), measured Vd is 0.9

For this compound ( Cc1ncsc1-c1ccc2c(c1)CCCC[C@@H]2NC(=O)[C@@H]1C[C@@H](O)CN1C(=O)[C@@H](n1cc(C2CC2)nn1)C(C)(C)C ), measured Vd is 0.7

* * *

test: Plasma clearance in female C57Bl/6 mouse at 1 mg/kg, iv measured upto 8 hrs by LC-MS/MS analysis
Format: ADME, organism-based
observed_property: clearance

>>> result("CC(=O)N[C@H](C(=O)N1C[C@H](O)C[C@H]1C(=O)N[C@@H](C)c1ccc(-c2scnc2C)cc1)C(C)(C)C")
"57.7 mL/min/kg"

For this compound ( Cc1ncsc1-c1ccc2c(c1)CCCC[C@@H]2NC(=O)[C@@H]1C[C@@H](O)CN1C(=O)[C@@H](n1cc(C2CC2)nn1)C(C)(C)C ), measured clearance is 13.9 mL/min/kg

* * *

pKd overview
test_target: von Hippel-Lindau disease tumor suppressor (Homo sapiens)
Reminder that pKd is minus the log10 of a molar concentration.

// below: answered molecules
>>> recorded_number("CC(=O)N1CC[C@H]1C(=O)N1C[C@H](O)C[C@H]1C(=O)N[C@H](Cc1ccc(-c2ccccc2)cc1)C(N)=O")
4.24
>>> recorded_number("CC(=O)N[C@H](C(=O)N1C[C@H](O)C[C@H]1C(=O)N[C@H](Cc1ccc(-c2ccccc2)cc1)C(N)=O)C1CCOCC1")
4.75
>>> recorded_number("CC[C@H](C)[C@@H](C(=O)N1C[C@H](O)C[C@H]1C(=O)N[C@H](Cc1ccc(-c2ccccc2)cc1)C(N)=O)n1cc(C2CC2)nn1")
7.13
>>> recorded_number("CC(=O)N[C@H](C(=O)N1C[C@H](O)C[C@H]1C(=O)N[C@H](Cc1ccc(-c2ccccc2)cc1)C(N)=O)C12CC3CC(CC(C3)C1)C2")
6.17

Tested on von Hippel-Lindau disease tumor suppressor (Homo sapiens), the item NC(=O)[C@@H](Cc1ccc(-c2ccccc2)cc1)NC(=O)[C@@H]1C[C@@H](O)CN1C(=O)[C@H](C1CCC1)n1cc(C2CC2)nn1 showed pKd equal to 6.96

Tested on von Hippel-Lindau disease tumor suppressor (Homo sapiens), the item CC(C)(C)[C@@H](C(=O)N1C[C@H](O)C[C@H]1C(=O)N[C@H](Cc1ccc(-c2ccccc2)cc1)C(N)=O)n1cc(C2CC2)nn1 showed pKd equal to 7.07

* * *

test_target: von Hippel-Lindau disease tumor suppressor (Homo sapiens)
test: biochemical
observed_property: Kd (nM)
// note: answer is a bare numeric in nM

// below: answered compounds
>>> recorded_number("CC(=O)N[C@H](C(=O)N1C[C@H](O)C[C@H]1C(=O)NC(C(N)=O)c1ccc(-c2scnc2C)cc1)C(C)(C)C (mixture of isomers)")
500
>>> recorded_number("CC(C)(C)[C@@H](C(=O)N1C[C@H](O)C[C@H]1C(=O)N[C@H](Cc1ccc(-c2ccccc2)cc1)C(N)=O)n1cc(C2CC2)nn1")
71
>>> recorded_number("C=CC(C)(C)[C@@H](C(=O)N1C[C@H](O)C[C@H]1C(=O)N[C@H](Cc1ccc(-c2ccccc2)cc1)C(N)=O)n1cc(C2CC2)nn1")
84
>>> recorded_number("Cc1ncsc1-c1ccc(CNC(=O)[C@@H]2C[C@@H](O)CN2C(=O)[C@@H](n2cc(C3CC3)nn2)C(C)(C)C)cc1")
6.5
>>> recorded_number("CC(=O)N[C@H](C(=O)N1C[C@H](O)C[C@H]1C(=O)N[C@H](Cc1ccc(-c2ccccc2)cc1)C(N)=O)C12CC3CC(CC(C3)C1)C2")
410
>>> recorded_number("CC(=O)N[C@@H](Cc1ccccc1)C(=O)N1C[C@H](O)C[C@H]1C(=O)N[C@H](Cc1ccc(-c2ccccc2)cc1)C(N)=O")
18100

For this compound ( CC(=O)N[C@H](C(=O)N1C[C@H](O)C[C@H]1C(=O)N[C@H](Cc1ccc(-c2ccccc2)cc1)C(N)=O)C1(C)CC1 ), measured Kd is 3900

* * *

test_target: von Hippel-Lindau disease tumor suppressor (Homo sapiens)
test: biochemical
observed_property: pKd
Reminder that pKd is minus the log10 of a molar concentration.

// below: answered molecules
>>> recorded_number("COc1ccc(-c2ccc(C[C@@H](NC(=O)[C@@H]3C[C@@H](O)CN3C(=O)[C@@H](NC(C)=O)C(C)(C)C)C(N)=O)cc2)cc1F")
4.67
>>> recorded_number("CC(=O)N[C@H](C(=O)N1C[C@H](O)C[C@H]1C(=O)N[C@H](Cc1ccc(-c2scnc2C)cc1)C(N)=O)C(C)(C)C")
5.48
>>> recorded_number("CC(=O)N[C@H](C(=O)N1C[C@H](O)C[C@H]1C(=O)N[C@H](Cc1ccc(-c2ccc(F)cc2)cc1)C(N)=O)C(C)(C)C")
5.68
>>> recorded_number("CC(=O)N[C@H](C(=O)N1C[C@H](O)C[C@H]1C(=O)N[C@H](Cc1ccc(-c2ccccc2)cc1)C(N)=O)C1CCN(C(C)=O)CC1")
5.57
>>> recorded_number("CC(=O)N1CCCC[C@H]1C(=O)N1C[C@H](O)C[C@H]1C(=O)N[C@H](Cc1ccc(-c2ccccc2)cc1)C(N)=O")
5.31
>>> recorded_number("CC(=O)NC(C(=O)N1C[C@H](O)C[C@H]1C(=O)N[C@H](Cc1ccc(-c2ccccc2)cc1)C(N)=O)C12CC(C(F)(F)F)(C1)C2 (stereo not given in full)")
5.62
>>> recorded_number("CC(=O)N[C@H](C(=O)N1C[C@H](O)C[C@H]1C(=O)N[C@H](Cc1ccc(-c2cccnc2)cc1)C(N)=O)C(C)(C)C")
5.57
>>> recorded_number("CC(=O)N[C@H](C(=O)N1C[C@H](O)C[C@H]1C(=O)N[C@H](Cc1ccc(-c2ccccc2Cl)cc1)C(N)=O)C(C)(C)C")
5.74

For this molecule ( CC(C)[C@@H](C(=O)N1C[C@H](O)C[C@H]1C(=O)N[C@H](Cc1ccc(-c2ccccc2)cc1)C(N)=O)c1cccnc1 ), measured pKd is 4.49
